- system.tested: human dopamine D2L receptors (long isoform) (Homo sapiens)
- Construct: expressed in transfected cells; host or cells: HEK-293
- Sequence (P14416 whole entry, canonical isoform): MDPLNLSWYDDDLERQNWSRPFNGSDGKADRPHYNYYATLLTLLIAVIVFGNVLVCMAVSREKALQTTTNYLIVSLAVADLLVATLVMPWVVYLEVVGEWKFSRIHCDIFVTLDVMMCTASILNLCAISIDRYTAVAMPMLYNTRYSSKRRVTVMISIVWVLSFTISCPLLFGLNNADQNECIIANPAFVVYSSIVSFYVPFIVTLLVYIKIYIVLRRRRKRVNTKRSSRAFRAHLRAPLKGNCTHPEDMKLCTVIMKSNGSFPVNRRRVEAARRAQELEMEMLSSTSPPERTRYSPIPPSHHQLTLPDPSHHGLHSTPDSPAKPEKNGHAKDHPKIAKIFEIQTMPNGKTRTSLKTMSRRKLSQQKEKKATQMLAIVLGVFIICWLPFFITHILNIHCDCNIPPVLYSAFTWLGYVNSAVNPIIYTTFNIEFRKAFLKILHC
- assay.procedure: Receptor binding study, dopamine D2L receptor ([125I]iodospiperone displacement), selectivity vs D3
- experimental.setup: selectivity ratio, HEK-293 membranes
- Experimental: The substance to be tested was either dissolved in methanol/Chremophor® (BASF SE) or in dimethyl sulfoxide and then diluted with water to the desired concentration. Each assay mixture was run in triplicate. • The incubation buffer contained 50 mM tris, 120 mM NaCl, 5 mM KCl, 2 mM CaCl2, 2 mM MgCl2 and 0.1% bovine serum albumin, 10 μM quinolone and 0.1% ascorbic acid (prepared fresh daily). […]
experimental.endpoint: D2/D3 (Ki (D2L)/Ki (D3))

Example results:
> print(dat)
                                   compound     experimental.endpoint  endpoint.value
1  CC(=O)N[C@H]1CC[C@H](CCN2CCN(c3cc(CCO)nc(C(C)(C)C)n3)CC2)CC1  D2/D3 (Ki (D2L)/Ki (D3))    +++ (+++>50)
2  COCCc1cc(N2CCN(CC[C@H]3CC[C@H](NC(C)=O)CC3)C[C@@H]2C)nc(C(C)(C)C)n1  D2/D3 (Ki (D2L)/Ki (D3))    +++ (+++>50)
3  COCCc1cc(N2CCN(CCC3CC(NC=O)C3)C[C@@H]2C)nc(C(C)(C)C)n1 (stereo partly shown)  D2/D3 (Ki (D2L)/Ki (D3))        + (+>10)
4  CC(=O)N[C@H]1CC[C@H](CCN2CCN(c3cc(CCOC(F)F)nc(C(C)(C)C)n3)[C@@H](C)C2)CC1  D2/D3 (Ki (D2L)/Ki (D3))    +++ (+++>50)
5  CC(=O)N[C@H]1CC[C@H](CCN2CCN(c3cc(CCOC(F)(F)F)nc(C(C)(C)C)n3)CC2)CC1 [Compound 10b]  D2/D3 (Ki (D2L)/Ki (D3))        + (+>10)

In: Could you tell me which D2/D3 (Ki (D2L)/Ki (D3)) is on file for "COCCc1cc(N2CCN(CC[C@@H]3CC[C@@H](NC(C)=O)C3)CC2)nc(C(C)(C)C)n1" ?
Out: +++ (+++>50)

----------
Consider compounds characterized by their pKi with human dopamine D3 receptors (Homo sapiens, UniProt P35462).
Sequence (P35462 whole entry): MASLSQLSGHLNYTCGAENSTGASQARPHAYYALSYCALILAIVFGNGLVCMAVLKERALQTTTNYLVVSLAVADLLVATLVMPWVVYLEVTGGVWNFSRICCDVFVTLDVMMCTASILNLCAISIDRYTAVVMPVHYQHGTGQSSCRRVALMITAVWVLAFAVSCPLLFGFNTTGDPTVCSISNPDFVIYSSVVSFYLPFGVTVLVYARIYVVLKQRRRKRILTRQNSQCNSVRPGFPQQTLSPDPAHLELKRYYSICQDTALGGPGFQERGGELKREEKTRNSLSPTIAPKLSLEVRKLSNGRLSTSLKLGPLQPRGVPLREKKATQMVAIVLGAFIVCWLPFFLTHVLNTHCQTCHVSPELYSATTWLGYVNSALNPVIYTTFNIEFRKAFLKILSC
pKi: −log10 of the molar value.

Example results:
> print(dat)
                                   compound  experimental.endpoint  endpoint.value
1  CC(=O)N[C@H]1CC[C@H](CCN2CCN(c3cc(CCOC(F)(F)F)nc(C(C)(C)C)n3)CC2)CC1 [Compound 10b]                    pKi          > 8.00
2  CC(=O)N[C@H]1CC[C@H](CCN2CCN(c3cc(CCO)nc(C(C)(C)C)n3)CC2)CC1 [Compound 13]                    pKi          > 8.00
3  CC(=O)N[C@H]1CC[C@H](CCN2CCN(c3cc(CCO)nc(C(C)(C)C)n3)[C@@H](C)C2)CC1 [Compound 25]                    pKi          > 8.00

Next item in the queue.
In: Could you tell me which pKi is on file for COCCc1cc(N2CCN(CC[C@H]3C[C@H](NC(C)=O)C3)CC2)nc(C(C)(C)C)n1.O=C(O)C(F)(F)F [Compound 4b, trifluoroacetate] ?
Out: > 7.30

Data provenance is patent US9376396B2.
